assay: In vivo metabolism of [18F]17 and uptake of [18F]10; set-up: species or system CD1 mice; conditions: mouse, spleen, iv; after i.v. 100 to 200 kBq [18F]17, female CD1 mice; read-out: uptake, Spleen, 30 min p.i.
Measure Name: tissue uptake at 0.5 h
Output should be the measured figure followed by the unit it is expressed in.

Consider O=C(O)CCc1nc(-c2ccc([18F])cc2Br)no1 [[^18F]10] . Its measured tissue uptake at 0.5 h is 1.35 %ID/g

* * *

assay: In vivo metabolism of [18F]17 and uptake of [18F]10; parameters: species or system CD1 mice; settings: mouse, plasma, iv; after i.v. 100 to 200 kBq [18F]17, female CD1 mice; read-out: uptake, Plasma, 60 min p.i.
Measure Name: tissue uptake at 1 h (%ID/g)
Answer in %ID/g, number only, no unit symbol.

Consider O=C(O)CCc1nc(-c2ccc([18F])cc2Br)no1 [[^18F]10] . Its measured tissue uptake at 1 h is 15.4
